targetOrTestSystem: b-Raf (V600E) (Homo sapiens (Human), UniProt P15056, V600E)
Sequence (P15056 whole entry V600E): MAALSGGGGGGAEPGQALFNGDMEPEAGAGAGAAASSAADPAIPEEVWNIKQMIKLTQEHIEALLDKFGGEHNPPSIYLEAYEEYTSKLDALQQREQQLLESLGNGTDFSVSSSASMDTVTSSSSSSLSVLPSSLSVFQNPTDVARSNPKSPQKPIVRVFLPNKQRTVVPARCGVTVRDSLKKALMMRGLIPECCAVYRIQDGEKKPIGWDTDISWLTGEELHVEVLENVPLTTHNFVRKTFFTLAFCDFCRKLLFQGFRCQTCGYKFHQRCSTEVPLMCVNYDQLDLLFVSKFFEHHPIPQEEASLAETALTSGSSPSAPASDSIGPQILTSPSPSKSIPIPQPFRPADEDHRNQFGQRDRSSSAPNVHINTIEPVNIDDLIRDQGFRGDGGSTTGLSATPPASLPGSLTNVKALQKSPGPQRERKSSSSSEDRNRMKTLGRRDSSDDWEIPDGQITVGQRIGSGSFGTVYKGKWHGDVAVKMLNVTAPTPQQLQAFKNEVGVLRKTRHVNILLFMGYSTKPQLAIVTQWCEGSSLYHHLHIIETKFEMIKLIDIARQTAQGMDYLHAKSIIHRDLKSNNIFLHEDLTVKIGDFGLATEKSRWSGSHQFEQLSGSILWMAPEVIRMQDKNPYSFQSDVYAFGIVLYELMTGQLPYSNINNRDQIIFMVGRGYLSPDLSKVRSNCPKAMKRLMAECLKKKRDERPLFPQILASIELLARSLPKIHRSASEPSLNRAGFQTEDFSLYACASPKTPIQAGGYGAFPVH
assay: In vitro Raf activity determination (Alpha Screen, phospho-MEK), b-Raf (V600E)
testSettings: ATP 10 μM, 60 min pre-incubation, 3 hours reaction
recordedEndpoint: pIC50
Scale: negative log10 of molar concentration, which is what pIC50 denotes.

Prompt line: Tell me reported pIC50 for "Cc1ncc(NC(=O)c2cccc(C(F)(F)F)c2)cc1-c1cccc(C2(C)COC2)c1" , tested with b-Raf (V600E) (Homo sapiens (Human), UniProt P15056, V600E).
Response line: 8.45

Prompt line: Tell me reported pIC50 for "Cc1ccc(NC(=O)c2ccnc(C(C)(F)F)c2)cc1-c1cnc(-c2cnn(C)c2)c(C2(O)COC2)c1" , tested with b-Raf (V600E) (Homo sapiens (Human), UniProt P15056, V600E).
Response line: 8.78

Prompt line: Tell me reported pIC50 for "COc1ncc(-c2cc(NC(=O)c3ccnc(C(C)(C)C#N)c3)ccc2C)cc1C1(C=O)COC1" , tested with b-Raf (V600E) (Homo sapiens (Human), UniProt P15056, V600E).
Response line: 7.99

Prompt line: Tell me reported pIC50 for "COc1ncc(-c2cc(NC(=O)c3ccnc(C(F)F)c3)ccc2C)cc1C1(O)COC1" , tested with b-Raf (V600E) (Homo sapiens (Human), UniProt P15056, V600E).
Response line: 7.88

Prompt line: Tell me reported pIC50 for "COc1ncc(-c2cc(NC(=O)c3cc(C(C)(C)N)cc(C(F)(F)F)c3)cnc2C)cc1C1(CF)COC1" , tested with b-Raf (V600E) (Homo sapiens (Human), UniProt P15056, V600E).
Response line: 8.02

Prompt line: Tell me reported pIC50 for "COc1ncc(-c2cc(NC(=O)c3ccnc(C(C)(C)F)c3)cnc2C)cc1C1(C(F)F)COC1" , tested with b-Raf (V600E) (Homo sapiens (Human), UniProt P15056, V600E).
Response line: 8.85

Prompt line: Tell me reported pIC50 for "Cc1ccc(NC(=O)c2ccnc(C(C)(C)C#N)c2)cc1-c1cccc(C2COC2)c1" , tested with b-Raf (V600E) (Homo sapiens (Human), UniProt P15056, V600E).
Response line: 4.60

Prompt line: Tell me reported pIC50 for "COc1cc(-c2cc(NC(=O)c3cccc(C(F)(F)F)c3)ccc2C)cc(C2COC2)c1" , tested with b-Raf (V600E) (Homo sapiens (Human), UniProt P15056, V600E).
Response line: 8.56

Prompt line: Tell me reported pIC50 for "COc1ncc(-c2cc(NC(=O)c3ccnc(C(C)(C)F)c3)cnc2C)cc1C1(O)COC1" , tested with b-Raf (V600E) (Homo sapiens (Human), UniProt P15056, V600E).
Response line: 7.64

---

Consider the following compounds; for each one, report its pIC50.
targetOrTestSystem: C-Raf FL (Homo sapiens (Human), UniProt P04049, Y340E/Y341E)
Sequence (P04049 whole entry Y340E/Y341E): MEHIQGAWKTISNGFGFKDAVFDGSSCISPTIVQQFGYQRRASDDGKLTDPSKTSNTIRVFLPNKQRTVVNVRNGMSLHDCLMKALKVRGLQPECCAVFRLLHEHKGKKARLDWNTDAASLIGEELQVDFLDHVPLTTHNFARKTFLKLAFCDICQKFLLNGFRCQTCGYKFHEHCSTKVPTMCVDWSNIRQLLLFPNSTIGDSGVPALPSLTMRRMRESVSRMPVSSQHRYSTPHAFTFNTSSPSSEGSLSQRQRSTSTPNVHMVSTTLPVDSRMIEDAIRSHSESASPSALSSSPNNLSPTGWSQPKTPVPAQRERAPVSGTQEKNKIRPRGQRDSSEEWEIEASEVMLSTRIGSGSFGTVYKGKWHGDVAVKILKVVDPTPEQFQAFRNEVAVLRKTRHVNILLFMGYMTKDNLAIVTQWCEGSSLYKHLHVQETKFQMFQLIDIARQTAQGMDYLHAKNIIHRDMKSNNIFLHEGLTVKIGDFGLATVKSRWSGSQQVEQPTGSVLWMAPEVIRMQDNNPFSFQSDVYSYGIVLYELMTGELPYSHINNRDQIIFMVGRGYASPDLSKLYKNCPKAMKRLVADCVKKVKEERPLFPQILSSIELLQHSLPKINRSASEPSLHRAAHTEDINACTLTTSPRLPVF
Sequence (P63104 whole entry partner): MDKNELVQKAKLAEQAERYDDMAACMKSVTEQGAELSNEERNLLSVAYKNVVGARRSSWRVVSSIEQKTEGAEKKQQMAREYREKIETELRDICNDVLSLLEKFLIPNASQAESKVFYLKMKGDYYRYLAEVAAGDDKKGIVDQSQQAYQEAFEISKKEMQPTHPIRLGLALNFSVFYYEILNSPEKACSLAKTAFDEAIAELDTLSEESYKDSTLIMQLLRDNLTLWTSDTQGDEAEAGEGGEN
assay: In vitro Raf activity determination (Alpha Screen, phospho-MEK), C-Raf FL (full length, Y340E/Y341E)
testSettings: ATP 1 μM; 60 min pre-incubation; 1 hour reaction; column head does not say FL or TR
Scale: negative log10 of molar concentration, which is what pIC50 denotes.

Prompt line: Param item = Cc1ccc(NC(=O)c2cncc(C(F)(F)F)c2)cc1-c1cc(OCCO)nc(C2CCOCC2)c1 [Example 265] ; retrieve measured pIC50.
Response line: 10.00

Prompt line: Param item = Cc1ccc(NC(=O)c2cccc(C(F)(F)F)c2)cc1-c1cc(OCCO)nc(C2CCOCC2)c1 [Example 189] ; retrieve measured pIC50.
Response line: 9.87

Prompt line: Param item = Cc1ccc(NC(=O)c2cnnc(C(F)(F)F)c2)cc1-c1cc(OCCO)nc(C2(C)CCOCC2)c1 [Example 207] ; retrieve measured pIC50.
Response line: 10.00
